Assayed target: T1, recombinant human Siglec-8 extracellular domain (ECD) (human, UniProt Q9NYZ4 17-363)
T1 construct: extracellular domain; also called Siglec-8 ECD; full Siglec-8 ECD
T1 sequence (Q9NYZ4 17-363): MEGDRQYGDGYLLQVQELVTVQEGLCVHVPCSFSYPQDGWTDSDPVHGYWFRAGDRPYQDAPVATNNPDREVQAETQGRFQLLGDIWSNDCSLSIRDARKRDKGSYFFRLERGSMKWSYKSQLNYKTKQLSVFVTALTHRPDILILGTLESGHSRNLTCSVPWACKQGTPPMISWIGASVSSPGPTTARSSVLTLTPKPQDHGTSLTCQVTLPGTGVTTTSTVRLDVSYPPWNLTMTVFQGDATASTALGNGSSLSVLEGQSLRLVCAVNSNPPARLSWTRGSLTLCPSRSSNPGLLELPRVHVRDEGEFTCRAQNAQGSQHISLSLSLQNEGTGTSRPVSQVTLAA
Assay remarks: ELISA, coated Siglec-8 ECD
Exercise: state measured EC50 for each of the binders provided.
The reply should contain only the number, in nM.

Give a short answer stating reported EC50 for HDKE (antibody, human IgG1, V domains shown, human IgG1/kappa) VH: EVQLVESGGGLVQPGGSLRLSCAASGFSLTIYGAHWVRQAPGKGLEWLSVIWAGGSTNYNSALMSRFTISKDNSKNTVYLQMNSLRAEDTAVYYCARDGSSPYYYSMEYWGQGTTVTVSS VL: EIVLTQSPATLSLSPGERATLSCSATSSVSYMHWFQQKPGQAPRLLIYSTSNLASGVPARFSGSGSGTDFTLTISSLEPEDFAVYYCQQRSSYPFTFGPGTKLDIK . 0.065

Give a short answer stating reported EC50 for HAKB (antibody, human IgG1, V domains shown, human IgG1/kappa) VH: EVQLVESGGGLVQPGGSLRLSCAASGFSLTIYGAHWVRQAPGKGLEWVSVIWAGGSTNYNSALMSRFTISKDNSKNTVYLQMNSLRAEDTAVYYCARDGSSPYYYSMEYWGQGTTVTVSS VL: EIILTQSPATLSLSPGERATLSCSATSSVSYMHWFQQKPGQAPRLWIYSTSNLASGVPARFSGSGSGTDYTLTISSLEPEDFAVYYCQQRSSYPFTFGPGTKLDIK . 0.071

Give a short answer stating reported EC50 for RHE S-GKB (antibody, human IgG1, V domains shown, human IgG1/kappa) VH: EVQLVESGGGLVQPGGSLRLSCAASGFSLTIYGAHWVRQAPGKGLEWVGVIWAGGSTNYNSALMSRFTISKDNSKNTVYLQMNSLRAEDTAVYYCARDGSSPYYYGMEYWGQGTTVTVSS VL: EIILTQSPATLSLSPGERATLSCSATSSVSYMHWFQQKPGQAPRLWIYSTSNLASGVPARFSGSGSGTDYTLTISSLEPEDFAVYYCQQRSSYPFTFGPGTKLDIK . 627

Give a short answer stating reported EC50 for HBKB (antibody, human IgG1, V domains shown, human IgG1/kappa) VH: EVQLVESGGGLVQPGGSLRLSCAVSGFSLTIYGAHWVRQAPGKGLEWLGVIWAGGSTNYNSALMSRLSISKDNSKNTVYLQMNSLRAEDTAVYYCARDGSSPYYYSMEYWGQGTTVTVSS VL: EIILTQSPATLSLSPGERATLSCSATSSVSYMHWFQQKPGQAPRLWIYSTSNLASGVPARFSGSGSGTDYTLTISSLEPEDFAVYYCQQRSSYPFTFGPGTKLDIK . 0.056

Give a short answer stating reported EC50 for RHE S-GKD (antibody, human IgG1, V domains shown, human IgG1/kappa) VH: EVQLVESGGGLVQPGGSLRLSCAASGFSLTIYGAHWVRQAPGKGLEWVGVIWAGGSTNYNSALMSRFTISKDNSKNTVYLQMNSLRAEDTAVYYCARDGSSPYYYGMEYWGQGTTVTVSS VL: EIVLTQSPATLSLSPGERATLSCSATSSVSYMHWFQQKPGQAPRLWIYSTSNLASGIPARFSGSGSGTDFTLTISSLEPEDFAVYYCQQRSSYPFTFGPGTKLDIK . 8.65

Give a short answer stating reported EC50 for RHE E-DKA (antibody, human IgG1, V domains shown, human IgG1/kappa) VH: EVQLVESGGGLVQPGGSLRLSCAASGFSLTIYGAHWVRQAPGKGLEWVGVIWAGGSTNYNSALMSRFTISKDNSKNTVYLQMNSLRAEDTAVYYCARDGSSPYYYSMDYWGQGTTVTVSS VL: EIVLTQSPATLSLSPGERATLSCSATSSVSYMHWFQQKPGQAPRLLIYSTSNLASGIPARFSGSGSGTDFTLTISSLEPEDFAVYYCQQRSSYPFTFGPGTKLDIK . 0.388

Give a short answer stating reported EC50 for RHE E-DKF (antibody, human IgG1, V domains shown, human IgG1/kappa) VH: EVQLVESGGGLVQPGGSLRLSCAASGFSLTIYGAHWVRQAPGKGLEWVGVIWAGGSTNYNSALMSRFTISKDNSKNTVYLQMNSLRAEDTAVYYCARDGSSPYYYSMDYWGQGTTVTVSS VL: EIVLTQSPATLSLSPGERATLSCSATSSVSYMHWFQQKPGQAPRLLIYSTSNLASGIPARFSGSGSGTDYTLTISSLEPEDFAVYYCQQRSSYPFTFGPGTKLDIK . 0.445

Give a short answer stating reported EC50 for HFKG (antibody, human IgG1, V domains shown, human IgG1/kappa) VH: EVQLVESGGGLVQPGGSLRLSCAASGFSLTIYGAHWVRQAPGKGLEWVSVIWAGGSTNYNSALMSRLTISKDNSKNTVYLQMNSLRAEDTAVYYCARDGSSPYYYSMEYWGQGTTVTVSS VL: EIVLTQSPATLSLSPGERATLSCSATSSVSYMHWYQQKPGQAPRLLIYSTSNLASGIPARFSGSGSGTDFTLTISSLEPEDFAVYYCQQRSSYPFTFGPGTKLDIK . 0.355

Give a short answer stating reported EC50 for HAcVK (antibody, human IgG1, V domains shown, human IgG1/kappa) VH: EVQLVESGGGLVQPGGSLRLSCAASGFSLTIYGAHWVRQAPGKGLEWVSVIWAGGSTNYNSALMSRFTISKDNSKNTVYLQMNSLRAEDTAVYYCARDGSSPYYYSMEYWGQGTTVTVSS VL: QIILTQSPAIMSASPGEKVSITCSATSSVSYMHWFQQKPGTSPKLWIYSTSNLASGVPVRFSGSGSGTSYSLTISRMEAEDAATYYCQQRSSYPFTFGSGTKLEIK . 0.067

Give a short answer stating reported EC50 for HCKB (antibody, human IgG1, V domains shown, human IgG1/kappa) VH: EVQLVESGGGLVQPGGSLRLSCAVSGFSLTIYGAHWVRQAPGKGLEWVSVIWAGGSTNYNSALMSRFTISKDNSKNTVYLQMNSLRAEDTAVYYCARDGSSPYYYSMEYWGQGTTVTVSS VL: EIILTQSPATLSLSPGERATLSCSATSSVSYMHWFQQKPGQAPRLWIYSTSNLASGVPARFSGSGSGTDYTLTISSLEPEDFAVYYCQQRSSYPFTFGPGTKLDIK . 0.065
